These measurements were taken from patent US10227329B2.

- target_of_assay: RET V804L (Homo sapiens (Human), UniProt P07949, V804L)
- Sequence (P07949 29-1114 V804L): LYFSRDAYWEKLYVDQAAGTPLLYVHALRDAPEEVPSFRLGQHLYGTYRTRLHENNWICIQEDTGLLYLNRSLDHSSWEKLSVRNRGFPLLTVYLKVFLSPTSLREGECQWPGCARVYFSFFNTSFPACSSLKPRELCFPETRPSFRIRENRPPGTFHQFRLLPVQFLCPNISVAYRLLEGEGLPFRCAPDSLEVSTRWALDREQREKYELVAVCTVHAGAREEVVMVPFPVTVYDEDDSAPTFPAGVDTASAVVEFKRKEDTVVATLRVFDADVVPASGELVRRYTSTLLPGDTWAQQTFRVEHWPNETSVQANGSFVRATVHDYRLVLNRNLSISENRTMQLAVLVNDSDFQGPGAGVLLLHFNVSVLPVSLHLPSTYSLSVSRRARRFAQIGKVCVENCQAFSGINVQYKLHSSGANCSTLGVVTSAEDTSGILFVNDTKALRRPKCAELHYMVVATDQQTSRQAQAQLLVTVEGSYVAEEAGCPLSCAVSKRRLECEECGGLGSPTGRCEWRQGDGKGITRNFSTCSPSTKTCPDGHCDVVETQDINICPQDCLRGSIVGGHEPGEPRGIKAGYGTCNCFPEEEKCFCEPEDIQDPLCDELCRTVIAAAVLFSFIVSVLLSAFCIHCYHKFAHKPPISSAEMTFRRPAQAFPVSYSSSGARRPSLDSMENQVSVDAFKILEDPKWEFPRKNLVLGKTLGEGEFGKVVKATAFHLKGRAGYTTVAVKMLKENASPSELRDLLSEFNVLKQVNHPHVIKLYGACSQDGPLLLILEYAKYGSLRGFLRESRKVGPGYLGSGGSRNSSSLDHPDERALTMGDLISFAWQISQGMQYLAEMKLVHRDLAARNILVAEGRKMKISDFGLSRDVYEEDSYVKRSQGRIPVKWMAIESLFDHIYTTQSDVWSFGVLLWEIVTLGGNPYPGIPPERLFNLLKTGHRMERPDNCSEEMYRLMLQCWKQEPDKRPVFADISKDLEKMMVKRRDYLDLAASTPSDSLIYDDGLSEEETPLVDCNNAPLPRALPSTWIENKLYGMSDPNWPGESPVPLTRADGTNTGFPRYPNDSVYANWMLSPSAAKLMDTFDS
- assay_remarks: RET V804L Gatekeeper Mutant Assay at KM (Caliper electrophoretic mobility shift)
- condition_summary: 10 μM ATP (KM), read-out: V480L Mutant
pIC50: −log10 of the molar value.
readout_name: pIC50

QUERY: Reported pIC50 for RET V804L (Homo sapiens (Human), UniProt P07949, V804L), given Cc1cc(Nc2cc(C)c(F)c(N3CC(C(=O)N(C)[C@@H](C)c4ccc(-n5cc(F)cn5)nc4)C3)n2)n[nH]1 [Compound 171] ?
RESULT: > 8.00

QUERY: Reported pIC50 for RET V804L (Homo sapiens (Human), UniProt P07949, V804L), given Cc1cc(Nc2cc(C)[nH]n2)nc(N2CC(F)(C(=O)N[C@@H](C)c3ccc(-n4cccn4)nc3)C2)n1 [Compound 122] ?
RESULT: > 8.00

QUERY: Reported pIC50 for RET V804L (Homo sapiens (Human), UniProt P07949, V804L), given COCCC1(C(=O)NCc2ccc(-n3cccn3)nc2)CCN(c2nc(C)cc(Nc3cc(C)[nH]n3)n2)CC1 [Compound 213] ?
RESULT: > 8.00
